Provide the reported B-score of Tl+ flux slope (higher = more flux/activation; lower = inhibition) of each item.
molecular target: Solute carrier family 12 member 5 (Homo sapiens) (UniProt Q9H2X9); assay: modulation of human KCC2 ion transport – cell-based, HEK293 KCC2, FluoZin-2 fluorescence, MLSMR, primary screen (AID 1456); details: KCC2 cells, thallium flux FluoZin-2 fluorescence; at 10 µM;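 further: slope of fluorescence scaled to starting intensity during 10 to 20 s after thallium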
Sequence (Q9H2X9 whole entry, looked up): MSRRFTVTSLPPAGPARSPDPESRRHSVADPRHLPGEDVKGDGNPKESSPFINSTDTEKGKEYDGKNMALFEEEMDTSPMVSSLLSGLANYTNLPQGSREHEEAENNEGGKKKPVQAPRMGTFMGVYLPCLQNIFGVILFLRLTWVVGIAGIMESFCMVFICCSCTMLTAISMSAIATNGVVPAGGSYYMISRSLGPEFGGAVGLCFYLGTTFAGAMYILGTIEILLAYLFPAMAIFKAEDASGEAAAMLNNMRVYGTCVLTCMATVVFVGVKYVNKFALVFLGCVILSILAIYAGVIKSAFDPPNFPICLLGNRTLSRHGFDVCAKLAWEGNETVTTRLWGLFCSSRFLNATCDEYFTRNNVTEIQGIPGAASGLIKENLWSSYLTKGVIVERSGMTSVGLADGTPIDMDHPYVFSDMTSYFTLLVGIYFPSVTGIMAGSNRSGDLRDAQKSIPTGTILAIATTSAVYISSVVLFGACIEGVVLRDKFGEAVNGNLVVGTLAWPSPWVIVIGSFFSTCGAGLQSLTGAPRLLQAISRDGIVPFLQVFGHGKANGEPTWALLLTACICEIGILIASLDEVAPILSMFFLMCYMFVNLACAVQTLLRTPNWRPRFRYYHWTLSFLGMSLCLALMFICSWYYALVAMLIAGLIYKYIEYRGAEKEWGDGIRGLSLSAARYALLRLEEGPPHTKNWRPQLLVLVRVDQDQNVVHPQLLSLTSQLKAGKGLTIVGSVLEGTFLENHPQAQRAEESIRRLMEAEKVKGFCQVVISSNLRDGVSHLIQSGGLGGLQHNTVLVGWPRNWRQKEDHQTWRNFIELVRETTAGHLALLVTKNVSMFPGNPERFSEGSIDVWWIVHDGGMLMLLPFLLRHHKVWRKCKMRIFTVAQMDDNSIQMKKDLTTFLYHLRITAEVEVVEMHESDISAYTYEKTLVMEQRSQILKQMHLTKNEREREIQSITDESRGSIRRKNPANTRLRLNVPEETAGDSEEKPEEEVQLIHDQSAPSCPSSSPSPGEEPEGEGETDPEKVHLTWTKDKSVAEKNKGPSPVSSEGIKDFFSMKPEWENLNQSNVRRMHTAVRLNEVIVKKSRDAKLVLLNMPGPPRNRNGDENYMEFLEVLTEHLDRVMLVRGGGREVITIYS
Among all 190,000 compounds or so, about 4,100 (2.2%) were called active. The sample as a whole holds a higher share of actives than the screen did.
Note: the reply should be a number with no unit written.

Jot down B-score of Tl+ flux slope (higher = more flux/activation; lower = inhibition) (Solute carrier family 12 member 5 (Homo sapiens) (UniProt Q9H2X9)) of Cc1c(NC(=O)CSc2nnnn2-c2ccc(C(=O)O)cc2)c(=O)n(-c2ccccc2)n1C . 1.95

Supply B-score of Tl+ flux slope (higher = more flux/activation; lower = inhibition) measured with Solute carrier family 12 member 5 (Homo sapiens) (UniProt Q9H2X9) for CCc1nnc(NC(=O)CSc2nc3c(c(=O)n2-c2ccccc2OC)SCC3)s1 . -2.34

For Solute carrier family 12 member 5 (Homo sapiens) (UniProt Q9H2X9), give the measured B-score of Tl+ flux slope (higher = more flux/activation; lower = inhibition) of the entry COc1cc(/C=C2/C(=O)ON=C2C)ccc1OCc1cccc(F)c1 0.0292

Provide the reported B-score of Tl+ flux slope (higher = more flux/activation; lower = inhibition) (system: Solute carrier family 12 member 5 (Homo sapiens) (UniProt Q9H2X9)) for Cc1c(NC(=O)c2cccnc2)c(=O)n(-c2ccccc2)n1C 0.0888

Give B-score of Tl+ flux slope (higher = more flux/activation; lower = inhibition) for O=C(NCc1ccco1)C1CCCN1S(=O)(=O)c1ccccc1C(F)(F)F (stereo not given) tested on Solute carrier family 12 member 5 (Homo sapiens) (UniProt Q9H2X9). 0.797
